# experimentSummary: Compound solubility in water
assayReadout: solubility

Dear colleague, I am looking for the recorded solubility of the following compound: CC(C)CCNC(=O)n1cnc2c(N3CCN(C)C(CF)C3)cccc21 (stereo not drawn) [Example 201]
28 µg/mL

Moving on to the next compound: CC(C)CCNC(=O)n1cnc2c(N3CCN4CCCCC4C3)cccc21 (stereo not drawn) [Example 198]
28 µg/mL

Try this compound next: COc1nc2cc(-c3cccnc3)cnc2n1C(=O)NCCCCc1ccccc1 [Example 122]
0.04 µg/mL

Quick one: CCCCNC(=O)n1cnc2ccc(F)cc21 [Example 69]
20.2 µg/mL

Similarly, CC(C)C#CCNC(=O)n1cnc2c(N3CC4(CN(C)C4)C3)cccc21 [Example 358] ?
33 µg/mL

Try this compound next: CC(C)CCNC(=O)n1cnc2c(N3C[C@@H](C)O[C@@H](C)C3)cccc21 [Example 167]
4 µg/mL

Follow-up entry: O=C(NCCc1ccccc1)n1cnc2cnccc21 [Example 20]
5.3 µg/mL

Here is the next compound: CC(C)CCNC(=O)n1cnc2c(N3CCO[C@H](C(C)C)C3)cccc21 [Example 172b]
4 µg/mL

Can you check COc1nc2cnc(N3CCOCC3)cc2n1C(=O)NCCCc1ccccc1 [Example 213a] next?
9 µg/mL
